- test_description: CC50 assay (CellTiter-Glo) in Huh-7 HCV replicon cells
- Format: cell-based
- cond: human, Table 2, 3 days incubation
- Experimental: The anti-HCV activity of the pyrido[3,2-d]pyrimidine derivatives of this invention was tested in a human hepatoma Huh-7 cell line harboring a HCV replicon. The assay comprised the following steps: • Step 1: compound preparation and serial dilution: serial dilution is performed in 50% DMSO in a 384-well plate. […]
Exercise: state measured CC50 at 3 days for each of the compounds provided.

Exam item: Recorded CC50 at 3 days for NS(=O)(=O)c1ccc(CNc2nc(NC3(C(F)(F)F)CC3)c3nc(-c4ccc(F)cc4)ccc3n2)c(Cl)c1 , please?
Marked response: > 10 µM

Exam item: Quick one: CC50 at 3 days of FC(F)(F)CNc1nc(NCc2ccc(-n3cncn3)cc2)nc2ccc(-c3ccc(OC4CC4)nc3)nc12 ?
Marked response: > 10 µM

Exam item: Could you tell me which CC50 at 3 days is on file for COCc1ccc(-c2ccc3nc(NCc4ccc(S(N)(=O)=O)cc4)nc(NCC(F)(F)F)c3n2)cc1S(C)(=O)=O ?
Marked response: > 10 µM

Exam item: Query: CC50 at 3 days; subject: Cc1ccc(-c2ccc3nc(NCc4ccc(S(N)(=O)=O)cc4)nc(NCC(F)(F)F)c3n2)cc1S(C)(=O)=O
Marked response: > 10 µM

Exam item: Any idea what CC50 at 3 days was measured for COc1ccc(-c2ccc3nc(NCc4ccc(S(N)(=O)=O)cc4)nc(NCC(F)(F)F)c3n2)cc1C(F)(F)F ?
Marked response: > 10 µM

Exam item: Could you tell me which CC50 at 3 days is on file for COCCNc1nc(NCC(F)(F)F)c2nc(-c3ccc(OC)c(S(C)(=O)=O)c3)ccc2n1 ?
Marked response: > 10 µM

Exam item: Value lookup for CC50 at 3 days; key = CS(=O)(=O)c1cc(-c2ccc3nc(NCc4ccc(-n5cncn5)cc4)nc(OC4CC4)c3n2)ccc1OC(F)F
Marked response: 1 to 10 µM

Exam item: Entry C#Cc1ccc2nc(N[C@H](C)c3ccc(S(N)(=O)=O)cc3)nc(O[C@@H]3C[C@@H]4C[C@@H]4C3)c2n1 : reported CC50 at 3 days = ?
Marked response: > 10 µM

Exam item: Could you tell me which CC50 at 3 days is on file for C[C@@H](Nc1nc(NCC(F)(F)F)c2nc(C#CC(C)(C)O)ccc2n1)c1ccc(S(N)(=O)=O)cc1 ?
Marked response: > 10 µM

Exam item: Can you look up the measured CC50 at 3 days of CCOc1ccc(-c2ccc3nc(NCc4cc(Cl)cc(S(N)(=O)=O)c4)nc(NCC(F)(F)F)c3n2)cn1 for me?
Marked response: 1 to 10 µM

Exam item: So what does the record say about CC50 at 3 days for CCOc1ccc(-c2ccc3nc(NCc4ccc(-n5cncn5)cc4)nc(NCC(F)(F)F)c3n2)cc1S(C)(=O)=O ?
Marked response: 1 to 10 µM

Exam item: Reported CC50 at 3 days, compound CS(=O)(=O)c1cccc(-c2ccc3nc(NCc4ccc(-n5ccnc5)cc4)nc(NCC(F)(F)F)c3n2)c1 : ____
Marked response: > 10 µM

Exam item: Looking for the measured CC50 at 3 days of FC(F)(F)C1(Nc2nc(NCc3cccc(-n4cncn4)c3)nc3ccc(-c4ccc(NC5CC5)nc4)nc23)CC1 , can you help?
Marked response: > 10 µM

Exam item: Which CC50 at 3 days value is on record for CCOc1ccc(-c2ccc3nc(NCc4cccc(S(C)(=O)=O)c4)nc(NCC(F)(F)F)c3n2)cn1 ?
Marked response: > 10 µM

Exam item: Which CC50 at 3 days is reported for this compound? CC(C)Oc1nc(NCc2ccc(-n3cncn3)cc2)nc2ccc(-c3cccc(S(C)(=O)=O)c3)nc12
Marked response: > 10 µM

----------
- test_description: CC50 assay (CellTiter-Glo) in Huh-7 HCV replicon cells
- Format: cell-based
- cond: human, Table 2, 3 days incubation
result_type: CC50 at 3 days

Exam item: Entry N#Cc1cc(F)ccc1-c1ccc2nc(NCc3cc(Cl)cc(S(N)(=O)=O)c3)nc(NC3(C(F)(F)F)CC3)c2n1 [Example 100] has what CC50 at 3 days?
Marked response: 1 to 10 µM

Exam item: Find the recorded CC50 at 3 days belonging to CCS(=O)(=O)c1cccc(-c2ccc3nc(NCc4ccc(-n5cncn5)cc4)nc(NCC(F)(F)F)c3n2)c1 [Example 181] and report it.
Marked response: > 10 µM

Exam item: Entry under review: NS(=O)(=O)c1cc(-c2ccc3nc(NCc4ccc(-n5cncn5)cc4)nc(NC4(C(F)(F)F)CC4)c3n2)ccc1Cl [Example 37] . Reported CC50 at 3 days?
Marked response: 1 to 10 µM

Exam item: Dear colleague, I am looking for the recorded CC50 at 3 days of the following compound: COc1ccc(-c2ccc3nc(NCc4ccc(C)c(F)c4)nc(NCC(F)(F)F)c3n2)cc1S(C)(=O)=O [Example 176]
Marked response: 1 to 10 µM

Exam item: Using the record for COCC#Cc1ccc2nc(N[C@H](C)c3ccc(S(N)(=O)=O)cc3)nc(NCC(F)(F)F)c2n1 [Example 277] , report its CC50 at 3 days.
Marked response: > 10 µM

Exam item: GET /values?readout=CC50 at 3 days&item= NS(=O)(=O)c1cc(CNc2nc(NC3(C(F)(F)F)CC3)c3nc(-c4ccc(F)cc4)ccc3n2)ccc1F [Example 25]
Marked response: > 10 µM

Exam item: Entry NS(=O)(=O)c1cc(CNc2nc(NC3(C(F)(F)F)CC3)c3nc(-c4ccc(F)cc4)ccc3n2)ccc1C(F)(F)F [Example 118] has what CC50 at 3 days?
Marked response: > 10 µM

----------
- test_description: CC50 assay (CellTiter-Glo) in Huh-7 HCV replicon cells
- Format: cell-based
- cond: human, Table 1, 3 days incubation
Please provide measured CC50 at 3 days for the entries that follow.

Exam item: What value of CC50 at 3 days has been reported for the following compound? CS(=O)(=O)c1cccc(-c2ccc3nc(NCc4ccc(S(N)(=O)=O)cc4)nc(OC4CC4)c3n2)c1
Marked response: > 25 µM

Exam item: # lookup: CC50 at 3 days of NS(=O)(=O)c1ccc(CNc2nc(NCC(F)(F)F)c3nc(-c4ccc(F)cc4)ccc3n2)cc1C(F)(F)F
Marked response: > 25 µM

Exam item: Dear colleague, I am looking for the recorded CC50 at 3 days of the following compound: COc1ccc(-c2ccc3nc(NCc4cccc(-n5cncn5)c4)nc(NCC(F)(F)F)c3n2)cc1S(C)(=O)=O
Marked response: > 25 µM

Exam item: What value of CC50 at 3 days has been recorded for this entry: CS(=O)(=O)c1cccc(-c2ccc3nc(NCc4ccc(S(N)(=O)=O)cc4)nc(NCC(F)(F)F)c3n2)c1
Marked response: > 25 µM

Exam item: Need CC50 at 3 days, item CS(=O)(=O)c1cccc(-c2ccc3nc(NCc4cccc(-n5cncn5)c4)nc(NCC(F)(F)F)c3n2)c1
Marked response: > 25 µM

Exam item: Endpoint output: CC50 at 3 days of Fc1ccc(-c2ccc3nc(NCc4cccc(-n5cccn5)c4)nc(NCC(F)(F)F)c3n2)cc1 . Value?
Marked response: > 25 µM

Exam item: Could you tell me which CC50 at 3 days is on file for NS(=O)(=O)c1ccc(CNc2nc(NCC(F)(F)F)c3nc(-c4ccc(F)cc4)ccc3n2)cc1Cl ?
Marked response: > 25 µM

Exam item: I am curious: what CC50 at 3 days value has been reported for NS(=O)(=O)c1ccc(CNc2nc(NCC(F)(F)F)c3nc(-c4ccc(F)cc4)ccc3n2)cc1F ?
Marked response: > 25 µM

Exam item: Field request: CC50 at 3 days | item: COc1ccc(CNc2nc(NCC(F)(F)F)c3nc(-c4ccc(F)cc4)ccc3n2)cc1S(N)(=O)=O
Marked response: > 25 µM

Exam item: Please report the recorded CC50 at 3 days for Cc1cc(S(N)(=O)=O)ccc1CNc1nc(NCC(F)(F)F)c2nc(-c3ccc(F)cc3)ccc2n1 .
Marked response: > 25 µM

Exam item: For the compound shown here, CC[C@@H](Nc1nc(NCC(F)(F)F)c2nc(-c3ccc(F)cc3)ccc2n1)c1ccccc1S(N)(=O)=O , give the reported CC50 at 3 days.
Marked response: > 25 µM

Exam item: If you can, please state the reported CC50 at 3 days value of NS(=O)(=O)c1cc(CNc2nc(NCC(F)(F)F)c3nc(-c4ccc(F)cc4)ccc3n2)cc(C(F)(F)F)c1 .
Marked response: > 25 µM

Exam item: Given the compound C[C@@H](Nc1nc(OC2CC2)c2nc(-c3ccc(F)cc3)ccc2n1)c1ccc(S(N)(=O)=O)cc1 , what is its reported CC50 at 3 days?
Marked response: 10 to 25 µM

Exam item: Entry under review: CC[C@@H](Nc1nc(NCC(F)(F)F)c2nc(-c3ccc(F)cc3)ccc2n1)c1ccc(S(N)(=O)=O)cc1 . Reported CC50 at 3 days?
Marked response: 10 to 25 µM

Exam item: GET /values?readout=CC50 at 3 days&item= Cc1cc(S(N)(=O)=O)ccc1C(C)Nc1nc(NCC(F)(F)F)c2nc(-c3ccc(F)cc3)ccc2n1 (stereo not drawn)
Marked response: < 10 µM

Exam item: Name the reported CC50 at 3 days value associated with the compound CS(=O)(=O)c1cccc(-c2ccc3nc(NCc4cccc(S(N)(=O)=O)c4)nc(NCC(F)(F)F)c3n2)c1
Marked response: 10 to 25 µM

Exam item: // query CC50 at 3 days value for entry CC(Nc1nc(NCC(F)(F)F)c2nc(-c3cccc(S(C)(=O)=O)c3)ccc2n1)c1ccc(-n2cncn2)cc1 (stereo not drawn)
Marked response: 10 to 25 µM

Exam item: Form field: reported CC50 at 3 days of CS(=O)(=O)c1cc(-c2ccc3nc(NCc4ccc(S(N)(=O)=O)cc4)nc(NCC(F)(F)F)c3n2)ccc1F
Marked response: > 25 µM

Exam item: Field request: CC50 at 3 days | item: NS(=O)(=O)c1cc(CNc2nc(NCC(F)(F)F)c3nc(-c4ccc(F)cc4)ccc3n2)ccc1F
Marked response: 10 to 25 µM

Exam item: Any idea what CC50 at 3 days was measured for C[C@@H](Nc1nc(NCC(F)(F)F)c2nc(-c3cccc(S(C)(=O)=O)c3)ccc2n1)c1ccc(S(N)(=O)=O)cc1 ?
Marked response: 10 to 25 µM

Exam item: Please look up its CC50 at 3 days: Fc1ccc(-c2ccc3nc(NCc4cccc(-n5cncn5)c4)nc(NCC(F)(F)F)c3n2)cc1
Marked response: > 25 µM
